Hey, just so you know, these numbers are from patent US20030236190A1.

For each entry below, report its pIC50 value.
- targetOrSystem: T1, recombinant human IGF-1R (rhIGF-1R) (human, UniProt P08069 31-935)
- T1 construct: extracellular domain; Coated on plates in the TRF assay and europium-labelled (LANCE) in the TR-FRET assays; also called rhIGE-1R; Eu3+-rhIGF-1R
- assayComment: TR-FRET competition with b-20E2 for rhIGF-1R
One number for each entry, as −log10 of the molar value.

Past entries and their recorded results:
# binder, quantity, measuredResult
data = [
    ("PPWGARFYDAIEQLVFDNL [RP4]", "pIC50", 5.09),
    ("DYKDFYDAIDQLVRGSARAGGTRD (also called 20E2 (D118)) [20E2]", "pIC50", 7.00),
    ("SQAGSAFYAWFDQVLRTV [RP15]", "pIC50", 6.15),
    ("GSLDESFYDWFERQLG (also called RP9 minus terminal lysines) [RP9]", "pIC50", 7.48),
    ("GIISQSCPESFYDWFAGQVSDPWWCW [G33]", "pIC50", 6.75),
    ("CWARPCGDAANFYDWFVQQAS (also called C1 (D112)) [C1]", "pIC50", 8.00),
]

Would you kindly look at the next entry?
## Task Return reported pIC50; argument: VMDARDDPFYHKLSELVT [RP16]
## Result 6.02
